Test system: 991263-137-R1-J2-PDC complex spheroid viability;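 note: spheroids exposed to compounds for 7 days before readout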
Assay: Anticancer human tumor 991263-137-R1-J2-PDC patient-derived colon adenocarcinoma cell line growth inhibition [POLQ]
Conditions: curve of first compound; second compound 1 µM
Method: Multicellular complex tumor spheroid response to Polymerase (POL) inhibitors (novobiocin, ART-558, RP6685) in combination with a variety of drugs and investigational agents in selected tumor cell lines The POL inhibitors (novobiocin, ART-558, and RP6685) were evaluated both individually and in combination with standard of care and investigational anticancer small molecules within a complex spheroid model of solid tumors. . […]
pIC50: −log10 of the molar value.

compound	operator	pIC50
CC1COCCN1c1cc(C2(S(C)(=N)=O)CC2)nc(-c2ccnc3[nH]ccc23)n1 (stereo not given) + COC1C(OC(N)=O)C(O)C(Oc2ccc3c(O)c(NC(=O)c4ccc(O)c(CC=C(C)C)c4)c(=O)oc3c2C)OC1(C)C	<	5.00
COc1cc(C2c3cc4c(cc3C(OC3OC5COC(C)OC5C(O)C3O)C3COC(=O)C23)OCO4)cc(OC)c1O (stereo not given) + Nc1ccc(C#CCN(C(=O)Cc2ncc(C(F)(F)F)cc2C(F)(F)F)c2ccc(F)cc2)nn1	<	5.00
COc1cccc(OCCCN)c1-c1cc(Nc2cnc(C#N)cn2)n[nH]1 + Cc1cccc(N(C)C(=O)C2C(O)CCN2c2nc(C)cc(C(F)(F)F)c2C#N)c1	=	6.00
COc1cccc2c1C(=O)c1c(O)c3c(c(O)c1C2=O)CC(O)(C(=O)CO)CC3OC1CC(N)C(O)C(C)O1 (stereo not given) + Cc1cccc(N(C)C(=O)C2C(O)CCN2c2nc(C)cc(C(F)(F)F)c2C#N)c1	=	6.01
COc1cccc2c1C(=O)c1c(O)c3c(c(O)c1C2=O)CC(O)(C(=O)CO)CC3OC1CC(N)C(O)C(C)O1 (stereo not given) + Nc1ccc(C#CCN(C(=O)Cc2ncc(C(F)(F)F)cc2C(F)(F)F)c2ccc(F)cc2)nn1	=	5.98
O=c1[nH]cc(F)c(=O)[nH]1 + Nc1ccc(C#CCN(C(=O)Cc2ncc(C(F)(F)F)cc2C(F)(F)F)c2ccc(F)cc2)nn1	<	5.00
Nc1ccn(C2OC(CO)C(O)C2(F)F)c(=O)n1 (stereo not given) + COC1C(OC(N)=O)C(O)C(Oc2ccc3c(O)c(NC(=O)c4ccc(O)c(CC=C(C)C)c4)c(=O)oc3c2C)OC1(C)C	=	6.07
CC1COCCN1c1cc(C2(O)CC3CCC(C2)O3)c2cnn(-c3ccn[nH]3)c2n1 (stereo not given) + COC1C(OC(N)=O)C(O)C(Oc2ccc3c(O)c(NC(=O)c4ccc(O)c(CC=C(C)C)c4)c(=O)oc3c2C)OC1(C)C	=	5.80
CC[C@@]1(O)C(=O)OCc2c1cc1n(c2=O)Cc2cc3c(CN(C)C)c(O)ccc3nc2-1 + Nc1ccc(C#CCN(C(=O)Cc2ncc(C(F)(F)F)cc2C(F)(F)F)c2ccc(F)cc2)nn1	<	7.00
C=CC(=O)N1CCN(c2nc(=O)n(-c3c(C)ccnc3C(C)C)c3nc(-c4c(O)cccc4F)c(F)cc23)C(C)C1 (stereo not given) + COC1C(OC(N)=O)C(O)C(Oc2ccc3c(O)c(NC(=O)c4ccc(O)c(CC=C(C)C)c4)c(=O)oc3c2C)OC1(C)C	<	5.00

Reference source: PubChem BioAssay AID1963828
